Data provenance: ChEMBL document CHEMBL1961873

Target: Tyrosine-protein kinase ZAP-70 (Homo sapiens) (UniProt P43403);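 note: values are mean percent inhibition of ZAP-70 kinase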
Sequence (P43403 whole entry): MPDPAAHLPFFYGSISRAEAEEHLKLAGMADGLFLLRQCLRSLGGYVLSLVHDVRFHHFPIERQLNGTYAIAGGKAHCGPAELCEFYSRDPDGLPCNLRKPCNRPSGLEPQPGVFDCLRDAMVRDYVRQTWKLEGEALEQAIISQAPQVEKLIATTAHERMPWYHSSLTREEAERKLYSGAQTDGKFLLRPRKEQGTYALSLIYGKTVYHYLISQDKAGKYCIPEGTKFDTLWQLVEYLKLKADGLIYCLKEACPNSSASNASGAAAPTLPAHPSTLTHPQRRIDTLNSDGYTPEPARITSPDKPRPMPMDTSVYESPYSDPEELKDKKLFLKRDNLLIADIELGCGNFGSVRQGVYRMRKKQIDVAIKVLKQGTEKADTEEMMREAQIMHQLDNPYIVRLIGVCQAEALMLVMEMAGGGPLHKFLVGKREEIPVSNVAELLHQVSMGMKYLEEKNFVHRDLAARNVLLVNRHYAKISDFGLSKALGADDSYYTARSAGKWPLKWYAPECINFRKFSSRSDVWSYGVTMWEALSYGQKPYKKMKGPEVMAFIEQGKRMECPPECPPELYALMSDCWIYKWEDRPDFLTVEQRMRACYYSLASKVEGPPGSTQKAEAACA
Settings: at 0.1 µM
Give measured inhibition for each item. Keep answers brief.
One number for each entry, in %.

NS(=O)(=O)c1cccc(Nc2cc(-c3ccc(F)cc3)n[nH]2)c1	1.39
NS(=O)(=O)c1ccc(NC=C2C(=O)Nc3ccc4ncsc4c32)cc1	3.29
Cc1nc(-c2ccccc2)n2nc(NCCCN3CCOCC3)ncc12	0.35

Please state inhibition for every compound in the list that follows.
1. OCc1ccc(-c2nc(-c3ccccn3)c(-c3ccc4c(c3)OCO4)[nH]2)cc1
2. FC(F)(F)c1ccc(-c2nn3ncccc3c2-c2ccnc(Nc3ccc4c(c3)OCCO4)n2)cc1

1.4
5.79

Please state inhibition for every compound in the list that follows.
1. NS(=O)(=O)c1ccc(N/N=C2\C(=O)Nc3ccc(Cl)cc32)cc1
2. CC(C)c1ccc2c(c1)NC(=O)/C2=N/Nc1ccc(S(N)(=O)=O)cc1
3. COc1cc(/C=N/Nc2ncnc3c2cnn3C(C)C)ccc1O
4. NS(=O)(=O)c1ccc(Nc2cc(-c3cccc(O)c3)n[nH]2)cc1
5. Nc1nccc(-c2c(-c3ccc(F)cc3)nn3cc(C(F)(F)F)ccc23)n1

1: 1.01; 2: -0.31; 3: 1.87; 4: 4.04; 5: -0.68
